biological target: Human SARS-CoV-2_Wuhan S (SmT1) (SARS-CoV-2 (Wuhan), UniProt P0DTC2 14-1208); assay: SPR, VHH over immobilised S
I'd be grateful if you could share measured Kd for these entries.
# output: bare number, implied unit pM

Lookup: Which Kd is reported for this binder? NRCoV2-SR02 VHH (VHH) VHH: EVQLVDSGGGLVQAGGSLRLSCTASEFTLNYYSIGWFRQSPGKEREGVSCIRYSGGGIDYADSVKGRFTISRDNAKNTVYLTMNSLKPEDTAVYYCAADRLYSRACPTAGGRNYWGQGTQVTVSS
Found: 135

Lookup: Which Kd is reported for this binder? NRCoV2-02 VHH (VHH) VHH: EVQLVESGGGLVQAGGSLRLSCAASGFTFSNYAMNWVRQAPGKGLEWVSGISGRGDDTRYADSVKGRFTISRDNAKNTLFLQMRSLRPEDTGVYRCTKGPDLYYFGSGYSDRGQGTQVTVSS
Found: 624

Lookup: Which Kd is reported for this binder? NRCoV2-10 VHH (VHH) VHH: QLQLQESGGGLVQPGGSLTLSCAASGNTFSRSNMHWYRQAPGAQREWVAAISSRGISTYAYSAKGRFTISRDNAKNTVSLQMNSLKPEDTAVYYCYAADDLGDYWGQGTQVTVSS
Found: 199

Lookup: Which Kd is reported for this binder? NRCoV2-MRed22 VHH (VHH) VHH: EVQLVESGGGLVQPGGSLRLSCAASGSVFASNAMGWYRQAPGKQRELVATISSRGSTNYADSVKGRFTISRDNAKNTVYLQMNSLGPEDTAVYYCNAREFTGFDYWGQGTQVTVSS
Found: 506

Lookup: Which Kd is reported for this binder? NRCoV2-MRed04 VHH (VHH) VHH: EVQLVESGGGLVQPGRSLRLSCAASGNSFSISTMGWFRQAPGKERELVASIWSDTTTSYADSVKGRFTISTDNTRTKVYLQMSSLNPEDTAVYYCAADRGFVVRGQYDYWGQGTQVTVSS
Found: 863

Lookup: Which Kd is reported for this binder? NRCoV2-SR16 VHH (VHH) VHH: QVQLVQSAGGLVQAGGSLRLSCVVSGTTFSRYHMGWHRQAPGKQRDFVAGISTSGAVTYADSAKGRFTISRDNAKNTVYLEMNSLKLEDTALYYCNTGGWDYRSSTFIMGLNWGQGTQVTVSS
Found: 1960

Lookup: Which Kd is reported for this binder? NRCoV2-20 VHH (VHH) VHH: EVQLQQSGGGLVQPGGSLRLSCAASGRTFSNYVVGWFRQAPQAPGKDHEFVAVISGSDTETYYADSVKGRFTISRDNAKNTVYLQMNSLKPEDTAVYYCAADRGMSYYYTRATEYYYWGQGTQVTVSS
Found: 4390

Lookup: Which Kd is reported for this binder? NRCoV2-S2G4 VHH (VHH) VHH: QVQLVQSGGGLVQAGGSLTLSCAPSGSTFSGYATNWYRQAPGKQRELVATISSDGDKNYADSVKGRFTISRDNAKNTVYLQMNSLKPEDTAVYYCNKHWWTGDWWGQGTQVTVSS
Found: 232

These entries and their values trace back to patent US20240270826A1.
